Assay Text: Selectivity index, ratio of CC50 for human Hep2 cells to IC50 for Coxsackievirus B3 Nancy infected in human Hep2 cells
Type: toxicity, cell-based
Stated Conditions: HEp-2 cells, read-out: Ratio CC50/IC50
# label = true (1) if selectivity ratio >= 20 else false (0)

[[record]]
test_smiles = "N#Cc1cc([N+](=O)[O-])ccc1Oc1ccc(Cl)c(Cl)c1"
qualitative_label = "true (1)"

[[record]]
test_smiles = "CC1(C)CC(Nc2ccc([N+](=O)[O-])cc2C#N)CC(C)(C)N1"
qualitative_label = "false (0)"

[[record]]
test_smiles = "N#Cc1cc([N+](=O)[O-])ccc1Sc1ccccc1Cl"
qualitative_label = "false (0)"


---

Listed below: CC50 at 48 h values for each entry.
Assay Text: Cytotoxicity against human Hep2 cells assessed as decrease in cell viability after 48 hrs by neutral red uptake assay
Format: cell-based
Stated Conditions: HEp-2 cells
Readout: CC50 at 48 h (µM)

[[record]]
test_smiles = "N#Cc1cc([N+](=O)[O-])ccc1Oc1ccc(F)c(F)c1"
readout = "CC50 at 48 h"
uom = "µM"
obs_value = 320

[[record]]
test_smiles = "N#Cc1cc([N+](=O)[O-])ccc1Sc1ccccc1Cl"
readout = "CC50 at 48 h"
uom = "µM"
obs_value = 53.8

[[record]]
test_smiles = "N#Cc1cc([N+](=O)[O-])ccc1N1C[C@@H]2C[C@H](C1)c1cccc(=O)n1C2"
readout = "CC50 at 48 h"
uom = "µM"
obs_value = 492

[[record]]
test_smiles = "Cc1c(Br)cc(Br)c(Oc2ccc([N+](=O)[O-])cc2C#N)c1Br"
readout = "CC50 at 48 h"
uom = "µM"
obs_value = 570

[[record]]
test_smiles = "N#Cc1cc([N+](=O)[O-])ccc1Oc1c(F)cccc1F"
readout = "CC50 at 48 h"
uom = "µM"
obs_value = 355

[[record]]
test_smiles = "N#Cc1cc([N+](=O)[O-])ccc1Oc1ncn(-c2ccccc2)n1"
readout = "CC50 at 48 h"
uom = "µM"
obs_value = 571

[[record]]
test_smiles = "CC1(C)CC(Nc2ccc([N+](=O)[O-])cc2C#N)CC(C)(C)N1"
readout = "CC50 at 48 h"
uom = "µM"
obs_value = 675

[[record]]
test_smiles = "N#Cc1cc([N+](=O)[O-])ccc1Oc1c(F)cc(F)cc1F"
readout = "CC50 at 48 h"
uom = "µM"
obs_value = 518

[[record]]
test_smiles = "N#Cc1cc([N+](=O)[O-])ccc1Oc1c(Cl)c(Cl)c(Cl)c(Cl)c1Cl"
readout = "CC50 at 48 h"
uom = "µM"
obs_value = 119

[[record]]
test_smiles = "COc1ccc(Oc2ccc([N+](=O)[O-])cc2C#N)c(C(C)(C)C)c1"
readout = "CC50 at 48 h"
uom = "µM"
obs_value = 22


---

Test system: Coxsackievirus B3
Assay Text: Antiviral activity against Coxsackievirus B3 Nancy infected in human Hep2 cells assessed as inhibition of virus-induced cytopathic effect after 48 hrs by neutral red uptake assay
Assay type: functional, cell-based
Stated Conditions: Enterovirus B, Nancy, HEp-2, 48 h; read-out: IC50
pIC50: −log10 of the molar value.
# label = T if pIC50 >= 5 else F

[[record]]
test_smiles = "N#Cc1cc([N+](=O)[O-])ccc1Oc1ccc(Cl)c(Cl)c1"
qualitative_label = "T"

[[record]]
test_smiles = "Cc1c(Br)cc(Br)c(Oc2ccc([N+](=O)[O-])cc2C#N)c1Br"
qualitative_label = "F"

[[record]]
test_smiles = "N#Cc1cc([N+](=O)[O-])ccc1Oc1c(Cl)c(Cl)c(Cl)c(Cl)c1Cl"
qualitative_label = "T"

[[record]]
test_smiles = "CC1(C)CC(Nc2ccc([N+](=O)[O-])cc2C#N)CC(C)(C)N1"
qualitative_label = "F"


Sourced from ChEMBL document CHEMBL4043211
